target.system: human GLP1-R (Homo sapiens)
Sequence (P43220 24-463): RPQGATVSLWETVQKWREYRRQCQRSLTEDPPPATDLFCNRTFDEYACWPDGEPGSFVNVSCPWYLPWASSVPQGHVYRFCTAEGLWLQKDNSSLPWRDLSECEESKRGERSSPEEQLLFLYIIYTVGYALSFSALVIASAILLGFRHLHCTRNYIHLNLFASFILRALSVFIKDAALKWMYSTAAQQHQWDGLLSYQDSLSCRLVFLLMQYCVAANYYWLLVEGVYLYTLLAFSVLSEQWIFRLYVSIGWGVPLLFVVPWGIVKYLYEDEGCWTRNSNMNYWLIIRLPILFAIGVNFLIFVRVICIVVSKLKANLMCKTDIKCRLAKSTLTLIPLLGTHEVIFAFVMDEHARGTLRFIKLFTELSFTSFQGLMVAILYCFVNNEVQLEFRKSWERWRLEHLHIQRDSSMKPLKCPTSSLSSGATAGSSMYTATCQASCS
method.notes: GLP1-R internalization assay in HEK293 cells
Format: cell-based
experimental.context: HEK293 cells expressing SNAP-GLP-1R; read-out: GLP1R Internalization EC50
Starred links: 1 amine or outer side, 2 acyl side, 3 side chain; linkers in the order of their positions; H or OH if unused. Non-standard residues stand in square brackets, D forms with d. Groups on a side chain read outwards from the residue. *: point of attachment. C20 diacid = O=C(O)CCCCCCCCCCCCCCCCCCC(=O)*; C18 diacid = O=C(O)CCCCCCCCCCCCCCCCC(=O)*; γGlu = O=C(O)[C@H](CCC(=O)[*:2])N[*:1]; αMeL = CC(C)C[C@](C)(N)C(=O)O; Orn = NCCC[C@H](N)C(=O)O; AEEA = NCCOCCOCC(=O)O; Aib = CC(C)(N)C(=O)O
What EC50 was measured for each of the following?
Give the quantity in nM, number only.

Return reported EC50; argument: H-Y[Aib]QGTFTSDFSK[αMeL]LDKK([AEEA-γGlu-C20 diacid])AQ[Aib]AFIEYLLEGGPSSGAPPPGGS-NH2 [Example 18]
91.8

What do you get for H-Y[Aib]QGTFTSDFSK[αMeL]LDKK([AEEA-γGlu-C18 diacid])AQ[Aib]QFIEYLLEGGPSSGAPPPSEG-NH2 [Example 51] ?
89.2

Repeat with H-Y[Aib]QGTFTSDFS[Orn][αMeL]LDKK([AEEA-AEEA-γGlu-C18 diacid])AQ[Aib]AFIEYLLE[Aib]GHSSGAPPPSGS-NH2 [Example 181]
116
